# System: mGrn mRNA
# Experiment: mGrn mRNA qPCR in Neuro2a cells transfected with ASOs
# Assay type: cell-based, mouse
# Conditions used: Table 16; Neuro2A, 40 nM, transfection
Oligonucleotides are written 5' to 3', each unit as a sugar letter and its base; * is a phosphorothioate linkage, no mark a phosphodiester; rarer units and linkages stand in square brackets, end groups in braces. Plain capitals give the bases only. e = 2'-O-(2-methoxyethyl) (MOE); [5mC] = 5-methylcytosine
Attribute measured: 40 nM FC (mGrn mRNA) (FC)

# Substance, Attribute measured, Unit label, Number
rows = [
    ("CO-5305: CO-3595 modified to include varying PO/PS internucleotide bonds (antisense e[5mC]*e[5mC]*eT*eG*eA*eA*e[5mC]eTeGeTeAeTeGeGe[5mC]eTeG*eA*e[5mC]*e[5mC])", "40 nM FC (mGrn mRNA)", "FC", 1.2),
    ("CO-5312: CO-3595 modified to include varying PO/PS internucleotide bonds (antisense e[5mC]*e[5mC]*eTeGeAeAe[5mC]eTeGeT*eA*eT*eG*eG*e[5mC]*eT*eG*eA*e[5mC]*e[5mC])", "40 nM FC (mGrn mRNA)", "FC", 1.5),
]

----------
# System: GRN mRNA
# Experiment: GRN mRNA qPCR in SK-N-AS cells transfected with ASOs
# Type: cell-based, human
# Conditions used: Table 12; SK-N-AS, 30 nM; normalized to CO-1589
Oligonucleotides are written 5' to 3', each unit as a sugar letter and its base; * is a phosphorothioate linkage, no mark a phosphodiester; rarer units and linkages stand in square brackets, end groups in braces. Plain capitals give the bases only. e = 2'-O-(2-methoxyethyl) (MOE); l = locked nucleic acid (LNA); [5mC] = 5-methylcytosine; d = 2'-deoxy (DNA)

# Substance, 30 nM FC (GRN mRNA)
rows = [
    ("CO-6516: ASO based on parent ASO CO-3462 (antisense eT*eA*eGeGeAeGeAeAeTe[5mC]eGe[5mC]eTeTeT*eG*eG*eG*eA*eG)", "1.0 FC"),
    ("CO-6388: ASO based on parent ASO CO-3462 (antisense eT*eA*eG*eG*eA*lG*dA*dA*lT*d[5mC]*dG*l[5mC]*dT*dT*lT*eG*eG*eG*eA*eG)", "1.1 FC"),
    ("CO-6390: ASO based on parent ASO CO-3462 (antisense eT*eA*eG*eG*lA*dG*dA*dA*lT*d[5mC]*dG*d[5mC]*lT*dT*dT*eG*lG*eG*eA*eG)", "1.3 FC"),
    ("CO-6386: ASO based on parent ASO CO-3462 (antisense eG*e[5mC]*eG*eA*eG*e[5mC]*e[5mC]*eA*eG*e[5mC]*eT*e[5mC]*eA*eG*eT*eA*eG*e[5mC]*eT*e[5mC])", "1.2 FC"),
    ("CO-6523: ASO based on parent ASO CO-3462 (antisense eT*eA*eG*eG*eA*eG*eA*eA*eT*e[5mC]*eG*e[5mC]*eT*eTeTeGeGeG*eA*eG)", "2.9 FC"),
    ("CO-6382: ASO based on parent ASO CO-3462 (antisense e[5mC]*eT*eA*eT*eG*eA*eT*e[5mC]*eA*eG*e[5mC]*eT*eT*eG*eG*eG*e[5mC]*eG*eA*e[5mC])", "0.8 FC"),
    ("CO-6394: ASO based on parent ASO CO-3462 (antisense eT*eA*lG*eG*eA*lG*eA*eA*lT*e[5mC]*eG*l[5mC]*eT*eT*lT*eG*eG*lG*eA*eG)", "1.1 FC"),
    ("CO-6391: ASO based on parent ASO CO-3462 (antisense eT*eA*eG*eG*eA*lG*eA*eA*lT*e[5mC]*eG*l[5mC]*eT*eT*lT*eG*eG*eG*eA*eG)", "1.3 FC"),
    ("CO-6514: ASO based on parent ASO CO-3462 (antisense eT*eA*eGeGeAeGeAeAeTe[5mC]eG*e[5mC]*eT*eT*eT*eG*eG*eG*eA*eG)", "1.4 FC"),
    ("CO-6385: ASO based on parent ASO CO-3462 (antisense e[5mC]*eG*eG*eT*eA*eG*eG*eA*eG*eA*eA*eT*e[5mC]*eG*e[5mC]*eT*eT*eT*eG*eG)", "1.1 FC"),
    ("CO-6389: ASO based on parent ASO CO-3462 (antisense eT*eA*eG*lG*eA*dG*dA*lA*dT*d[5mC]*dG*l[5mC]*dT*dT*dT*lG*eG*eG*eA*eG)", "1.0 FC"),
    ("CO-6401: ASO based on parent ASO CO-3462 (antisense eG*eT*eA*eG*eG*dA*dG*dA*eA*dT*d[5mC]*dG*d[5mC]*eT*dT*dT*dG*eG*eG*eA*eG*e[5mC])", "1.2 FC"),
    ("CO-6400: ASO based on parent ASO CO-3462 (antisense eG*eT*eA*eG*eG*eA*eG*eA*eA*eT*e[5mC]*eG*e[5mC]*eT*eT*eT*eG*eG*eG*eA*eG*e[5mC])", "1.1 FC"),
    ("CO-6521: ASO based on parent ASO CO-3462 (antisense eT*eA*eG*eG*eA*eG*eA*eA*eT*e[5mC]eGe[5mC]eTeTeTeGeGeG*eA*eG)", "1.1 FC"),
    ("CO-6396: ASO based on parent ASO CO-3462 (antisense eT*eA*eG*lG*eA*eG*eA*lA*eT*e[5mC]*eG*l[5mC]*eT*eT*eT*lG*eG*eG*eA*eG)", "1.4 FC"),
    ("CO-6399: ASO based on parent ASO CO-3462 (antisense eG*eT*eA*eG*eG*eA*dG*dA*dA*dT*d[5mC]*dG*d[5mC]*dT*dT*dT*eG*eG*eG*eA*eG*e[5mC])", "1.3 FC"),
    ("CO-6411: ASO based on parent ASO CO-3462 (antisense eT*eA*eGeGeA*eG*eA*eA*eT*e[5mC]*eG*e[5mC]*eT*eT*eT*eGeGeG*eA*eG)", "1.1 FC"),
    ("CO-6387: ASO based on parent ASO CO-3462 (antisense eT*eA*eG*eG*eA*dG*dA*dA*eT*d[5mC]*dG*e[5mC]*dT*dT*dT*eG*eG*eG*eA*eG)", "1.3 FC"),
    ("CO-6513: ASO based on parent ASO CO-3462 (antisense eT*eA*eGeGeAeGeAeAeT*e[5mC]*eG*e[5mC]*eT*eT*eT*eG*eG*eG*eA*eG)", "1.3 FC"),
    ("CO-6393: ASO based on parent ASO CO-3462 (antisense eT*eA*lG*eG*lA*eG*lA*eA*lT*e[5mC]*lG*e[5mC]*lT*eT*lT*eG*lG*eG*eA*eG)", "0.9 FC"),
    ("CO-6515: ASO based on parent ASO CO-3462 (antisense eT*eA*eGeGeAeGeAeAeTe[5mC]eGe[5mC]eT*eT*eT*eG*eG*eG*eA*eG)", "1.2 FC"),
]

----------
Parameter: 160 nM FC (mGrn mRNA). Scope: all listed entries.
# Tested on: mGrn mRNA
# Experiment: mGrn mRNA qPCR in Neuro2a cells transfected with ASOs
# Format: cell-based, mouse
# Conditions used: Table 16; Neuro2A, 160 nM, transfection
Oligonucleotides are written 5' to 3', each unit as a sugar letter and its base; * is a phosphorothioate linkage, no mark a phosphodiester; rarer units and linkages stand in square brackets, end groups in braces. Plain capitals give the bases only. e = 2'-O-(2-methoxyethyl) (MOE); l = locked nucleic acid (LNA); [5mC] = 5-methylcytosine

# Substance, 160 nM FC (mGrn mRNA)
rows = [
    ("CO-5306: CO-3595 modified to include varying PO/PS internucleotide bonds (antisense e[5mC]*e[5mC]*eT*eG*eA*eA*e[5mC]*eT*eGeTeAeTeGeGe[5mC]eTeG*eA*e[5mC]*e[5mC])", "1.3 FC"),
    ("CO-5311: CO-3595 modified to include varying PO/PS internucleotide bonds (antisense e[5mC]*e[5mC]*eTeGeAeAe[5mC]eTeGeTeAeT*eG*eG*e[5mC]*eT*eG*eA*e[5mC]*e[5mC])", "1.7 FC"),
    ("CO-5314: CO-3595 modified to include varying PO/PS internucleotide bonds (antisense l[5mC]*l[5mC]*eT*lG*lA*eA*l[5mC]*eT*lG*eT*lA*eT*lG*eG*l[5mC]*eT*lG*eA*l[5mC]*l[5mC])", "1.5 FC"),
    ("CO-4083: ASO based on parent ASOs CO-3544 and CO-3595, different modifications and base walking (antisense e[5mC]*e[5mC]*eT*eG*eA*lA*e[5mC]*eT*lG*eT*eA*lT*eG*eG*l[5mC]*eT*eG*eA*e[5mC]*e[5mC])", "1.6 FC"),
]

Entry source: patent US20250243488A1
